Test system: crabgrass (Digitaria sanguinalis)
Test: Preemergence herbicidal activity, crabgrass
Assay type: in vivo
Conditions: 8.8 g/Ha, soil spray, visual after 3 weeks; 0 no injury, 100 complete kill or no germination
readoutKind: DIGSA preemergence injury score 0-100 (%)
Give bare numbers, in %.

Use the examples below as a reference point.
{"compound": "COc1cc(OC)n2nc(NS(=O)(=O)c3c(OC)csc3C)nc2n1 [Compound 24]", "testedOn": "crabgrass (Digitaria sanguinalis)", "obsValue": 98}
{"compound": "COc1csc(Cl)c1S(=O)(=O)Nc1nc2c(C)cnc(OC)n2n1 [Compound 21]", "testedOn": "crabgrass (Digitaria sanguinalis)", "obsValue": 40}
{"compound": "COc1sccc1S(=O)(=O)Nc1nc2c(OC)cnc(OC)n2n1 [Compound 8]", "testedOn": "crabgrass (Digitaria sanguinalis)", "obsValue": 50}
{"compound": "CCOc1cscc1S(=O)(=O)Nc1nc2nc(OC)cc(OC)n2n1 [Compound 12]", "testedOn": "crabgrass (Digitaria sanguinalis)", "obsValue": 100}
{"compound": "COc1cc(OC)n2nc(NS(=O)(=O)c3cscc3OC)nc2n1 [Compound 15]", "testedOn": "crabgrass (Digitaria sanguinalis)", "obsValue": 100}
{"compound": "COc1csc(C(F)(F)F)c1S(=O)(=O)Nc1nc2c(OC)cnc(OC)n2n1 [Compound 10]", "testedOn": "crabgrass (Digitaria sanguinalis)", "obsValue": 70}

Below are 2 compounds. Give each one its DIGSA preemergence injury score 0-100.
1. COc1cc(OC)n2nc(NS(=O)(=O)c3c(OC)csc3Cl)nc2n1 [Compound 19]
2. COc1ccsc1S(=O)(=O)Nc1nc2c(Cl)cnc(OC)n2n1 [Compound 2]

1: 100; 2: 100

---

Provide the reported ABUTH preemergence injury score 0-100 of each item.
Tested on: velvetleaf (Abutilion theophrasti)
Test: Preemergence herbicidal activity, velvetleaf
Format: in vivo
Settings: 8.8 g/Ha, soil spray, visual after 3 weeks; 0 no injury, 100 complete kill or no germination
One number for each entry, in %.

Use the examples below as a reference point.
{"structureString": "COc1ccsc1S(=O)(=O)Nc1nc2c(Cl)cnc(OC)n2n1", "readoutKind": "ABUTH preemergence injury score 0-100", "obsValue": 75}
{"structureString": "COc1csc(C(F)(F)F)c1S(=O)(=O)Nc1nc2c(OC)cnc(OC)n2n1", "readoutKind": "ABUTH preemergence injury score 0-100", "obsValue": 70}

I would be grateful if you could share the reported ABUTH preemergence injury score 0-100 for "COc1csc(Cl)c1S(=O)(=O)Nc1nc2c(C)cnc(OC)n2n1" .
80

---

Tested on: velvetleaf (Abutilion theophrasti)
Assay: Preemergence herbicidal activity, velvetleaf
Format: in vivo
Conditions: 8.8 g/Ha, soil spray, visual after 3 weeks; 0 no injury, 100 complete kill or no germination
Protocol: The soil matrix was contained in plastic pots with a surface area of 161 square centimeters. When required to ensure good germination and healthy plants, a fungicide treatment and/or other chemical or physical treatment was applied. A weighed amount, determined by the highest rate to be tested, of each test compound was placed in a 20 mL glass vial and was dissolved in 8 mL of a 97:3 v/v (volume/volume) mixture of acetone and dimethyl sulfoxide to obtain concentrated stock solutions. […]
readoutKind: ABUTH preemergence injury score 0-100 (%)
Give bare numbers, in %.

{"structureString": "COc1cc(OC)n2nc(NS(=O)(=O)c3c(OC)csc3Cl)nc2n1", "testedOn": "velvetleaf (Abutilion theophrasti)", "ABUTH preemergence injury score 0-100, %": 95}

Below are 3 compounds. Give each one its ABUTH preemergence injury score 0-100.
1. COc1cc(OC)n2nc(NS(=O)(=O)c3c(OC)csc3C)nc2n1
2. COc1sccc1S(=O)(=O)Nc1nc2c(OC)cnc(OC)n2n1
3. COc1cc(OC)n2nc(NS(=O)(=O)c3cscc3OC)nc2n1

1: 98; 2: 70; 3: 90

I would be grateful if you could share the reported ABUTH preemergence injury score 0-100 for "CCOc1cscc1S(=O)(=O)Nc1nc2nc(OC)cc(OC)n2n1" .
90
